Sourced from the supplement of paper PMC8728848

Catalogue of binders with associated glycan array binding signal (z-score)
- system-tested: GlcA(b1-6)Gal
- method: glycan array binding signal (z-score within array); higher = stronger binding
- experimental-context: glycan notation: IUPAC condensed, linker removed
The entries come from a sample that favours the strongest signals as a whole.

# binder, glycan array binding signal (z-score)
data = [
    ("AT3G44510(29) (Arabidopsis thaliana), F4J341 (protein) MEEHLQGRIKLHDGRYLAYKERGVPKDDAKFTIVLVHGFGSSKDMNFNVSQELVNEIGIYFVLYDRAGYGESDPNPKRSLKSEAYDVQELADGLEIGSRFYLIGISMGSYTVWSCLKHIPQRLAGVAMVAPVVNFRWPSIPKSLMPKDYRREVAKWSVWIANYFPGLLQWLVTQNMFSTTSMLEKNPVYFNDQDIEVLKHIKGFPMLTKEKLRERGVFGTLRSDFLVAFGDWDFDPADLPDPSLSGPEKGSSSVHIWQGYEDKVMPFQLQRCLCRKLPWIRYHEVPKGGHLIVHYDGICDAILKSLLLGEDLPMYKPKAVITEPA", 0.079),
    ("TIM-1 (Mus musculus), AAL35774 (protein) MNQIQVFISGLILLLPGAVDSYVEVKGVVGHPVTLPCTYSTYRGITTTCWGRGQCPSSACQNTLIWTNGHRVTYQKSSRYNLKGHISEGDVSLTIENSVESDSGLYCCRVEIPGWFNDQKVTFSLQVKPEIPTRPPTRPTTTRPTATGRPTTISTRSTHVPTSIRVSTSTPPTSTHTWTHKPEPTTFCPHETTAEVTGIPSHTPTDWNGTVTSSGDTWSNHTEAIPPGKPQKNPTKGFYVGICIAALLLLLLVSTVAITRYILMKRKSASLSVVAFRVSKIEALQNAAVVHSRAEDNIYIVEDRP", 2.12),
    ("RVL (Remusatia vivipara), B5LYJ9 (protein) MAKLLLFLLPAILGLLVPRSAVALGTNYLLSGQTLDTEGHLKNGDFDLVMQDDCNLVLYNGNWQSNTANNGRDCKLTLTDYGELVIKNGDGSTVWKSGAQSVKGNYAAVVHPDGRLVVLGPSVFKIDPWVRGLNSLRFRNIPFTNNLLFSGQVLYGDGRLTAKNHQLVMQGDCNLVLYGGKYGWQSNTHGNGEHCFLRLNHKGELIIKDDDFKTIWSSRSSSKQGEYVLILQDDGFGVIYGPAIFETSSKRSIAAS", -0.23),
    ("MLTim-4 (Mus musculus), Q6U7R4 (protein) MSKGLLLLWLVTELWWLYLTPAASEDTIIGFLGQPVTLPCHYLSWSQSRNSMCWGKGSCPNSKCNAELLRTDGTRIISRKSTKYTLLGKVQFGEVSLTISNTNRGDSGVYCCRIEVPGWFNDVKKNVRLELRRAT", 2.97),
    ("Ovorubin (Pomacea canaliculata), J7I2T6 (protein) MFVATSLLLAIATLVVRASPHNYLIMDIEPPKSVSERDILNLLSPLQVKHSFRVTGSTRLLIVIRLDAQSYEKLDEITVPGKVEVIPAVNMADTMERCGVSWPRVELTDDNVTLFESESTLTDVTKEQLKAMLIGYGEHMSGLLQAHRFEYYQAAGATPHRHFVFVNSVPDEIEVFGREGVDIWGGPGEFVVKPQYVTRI", -0.181),
]
